Source listed as ChEMBL document CHEMBL4052702.

Measured IC50, listed per entry for reference.
# experimental.target: Protein deacetylase HDAC6 (Homo sapiens)
# Sequence (Q9UBN7 whole entry): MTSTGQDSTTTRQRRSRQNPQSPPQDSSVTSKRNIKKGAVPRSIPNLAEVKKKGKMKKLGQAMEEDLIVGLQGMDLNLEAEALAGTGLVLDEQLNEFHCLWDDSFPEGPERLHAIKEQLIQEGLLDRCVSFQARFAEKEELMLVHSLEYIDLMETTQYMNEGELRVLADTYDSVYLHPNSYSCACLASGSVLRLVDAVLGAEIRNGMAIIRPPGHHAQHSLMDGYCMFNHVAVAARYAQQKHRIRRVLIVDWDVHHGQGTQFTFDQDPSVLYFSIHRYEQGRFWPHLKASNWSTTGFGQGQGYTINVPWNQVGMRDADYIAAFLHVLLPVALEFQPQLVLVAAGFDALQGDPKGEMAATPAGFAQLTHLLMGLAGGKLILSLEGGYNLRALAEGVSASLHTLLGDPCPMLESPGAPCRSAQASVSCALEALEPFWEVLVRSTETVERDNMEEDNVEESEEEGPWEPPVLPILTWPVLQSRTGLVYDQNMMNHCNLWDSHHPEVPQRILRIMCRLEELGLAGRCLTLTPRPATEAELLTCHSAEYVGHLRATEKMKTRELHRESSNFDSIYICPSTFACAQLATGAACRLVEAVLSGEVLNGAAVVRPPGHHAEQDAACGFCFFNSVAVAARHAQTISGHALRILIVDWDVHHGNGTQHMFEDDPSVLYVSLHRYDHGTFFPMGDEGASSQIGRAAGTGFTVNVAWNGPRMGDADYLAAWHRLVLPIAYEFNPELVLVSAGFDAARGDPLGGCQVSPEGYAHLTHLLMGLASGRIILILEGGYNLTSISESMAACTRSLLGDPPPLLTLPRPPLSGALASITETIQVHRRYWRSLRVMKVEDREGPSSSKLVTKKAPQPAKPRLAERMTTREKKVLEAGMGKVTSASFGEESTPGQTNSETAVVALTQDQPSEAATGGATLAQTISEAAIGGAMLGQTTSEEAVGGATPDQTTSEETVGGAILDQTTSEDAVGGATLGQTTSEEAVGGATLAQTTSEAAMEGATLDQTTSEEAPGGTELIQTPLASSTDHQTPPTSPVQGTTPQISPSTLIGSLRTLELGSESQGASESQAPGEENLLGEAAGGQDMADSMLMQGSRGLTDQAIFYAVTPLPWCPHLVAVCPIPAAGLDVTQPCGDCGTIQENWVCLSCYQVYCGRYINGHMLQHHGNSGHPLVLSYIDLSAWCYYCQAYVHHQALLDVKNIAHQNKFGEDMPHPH
measured.parameter: IC50 (nM)

{"molecule": "O=C(CCCC(CCC(=O)Nc1ccccc1)Cc1ccccc1)NO (configuration not stated)", "experimental.target": "Protein deacetylase HDAC6 (Homo sapiens)", "unit.name": "nM", "measured.value": 270}
{"molecule": "CCCCC(CCCC(=O)NO)CCC(=O)Nc1ccccc1 (configuration not stated)", "experimental.target": "Protein deacetylase HDAC6 (Homo sapiens)", "unit.name": "nM", "measured.value": 320}

###

# experimental.target: Histone deacetylase 3 (Homo sapiens)
# Sequence (O15379 whole entry): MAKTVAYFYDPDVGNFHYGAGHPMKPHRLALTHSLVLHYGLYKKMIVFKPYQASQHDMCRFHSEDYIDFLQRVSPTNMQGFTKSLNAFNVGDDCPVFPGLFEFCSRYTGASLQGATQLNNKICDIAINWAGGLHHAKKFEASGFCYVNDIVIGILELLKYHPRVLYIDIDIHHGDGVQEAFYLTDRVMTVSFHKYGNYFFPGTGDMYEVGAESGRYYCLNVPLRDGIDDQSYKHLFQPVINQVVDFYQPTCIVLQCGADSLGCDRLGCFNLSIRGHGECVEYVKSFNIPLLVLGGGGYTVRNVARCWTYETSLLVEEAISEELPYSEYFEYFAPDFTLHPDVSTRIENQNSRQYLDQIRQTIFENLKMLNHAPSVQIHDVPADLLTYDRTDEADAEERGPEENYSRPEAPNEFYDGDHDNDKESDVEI
# assay.details: Inhibition of HDAC3 (unknown origin) by ELISA-based assay
pIC50: −log10 of the molar value.
measured.parameter: pIC50

{"molecule": "O=C(CCCC(CCC(=O)Nc1ccccc1)Cc1ccccc1)NO (configuration not stated)", "measured.value": 5.24}
{"molecule": "CCCCC(CCCC(=O)NO)CCC(=O)Nc1ccccc1 (configuration not stated)", "measured.value": 5.80}

###

# experimental.target: Histone deacetylase 2 (Homo sapiens)
# Sequence (Q92769 whole entry): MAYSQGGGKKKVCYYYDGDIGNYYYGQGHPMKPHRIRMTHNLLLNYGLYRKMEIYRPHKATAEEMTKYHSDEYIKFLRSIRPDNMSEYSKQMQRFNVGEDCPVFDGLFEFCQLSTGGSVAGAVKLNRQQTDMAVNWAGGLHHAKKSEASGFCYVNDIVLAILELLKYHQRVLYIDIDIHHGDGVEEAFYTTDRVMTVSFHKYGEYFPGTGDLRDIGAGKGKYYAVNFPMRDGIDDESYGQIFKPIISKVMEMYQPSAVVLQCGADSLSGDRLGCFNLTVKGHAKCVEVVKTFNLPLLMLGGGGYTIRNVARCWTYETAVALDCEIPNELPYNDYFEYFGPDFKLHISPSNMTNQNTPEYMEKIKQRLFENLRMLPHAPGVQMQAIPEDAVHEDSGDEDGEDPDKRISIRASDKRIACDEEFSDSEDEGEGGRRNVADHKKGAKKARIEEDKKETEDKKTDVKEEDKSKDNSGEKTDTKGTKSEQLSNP

{"compound": "CCCCC(CCCC(=O)NO)CCC(=O)Nc1ccccc1 (stereo unspecified)", "unit.name": "µM", "IC50": 1.3}
